Emax: recorded values
target: Human recombinant PDE10A (hPDE10A) (Homo sapiens); construct: His tag (inferred from metal chelate purification); made in house; host or cells: Sf9 insect cells (baculovirus); assay: In vitro assay PDE10A, human clone (SPA, 3H-cAMP hydrolysis); assay type: biochemical; settings: human clone (h), default; read-out: hPDE10A2 Emax
Sequence (Q9Y233 267-1055): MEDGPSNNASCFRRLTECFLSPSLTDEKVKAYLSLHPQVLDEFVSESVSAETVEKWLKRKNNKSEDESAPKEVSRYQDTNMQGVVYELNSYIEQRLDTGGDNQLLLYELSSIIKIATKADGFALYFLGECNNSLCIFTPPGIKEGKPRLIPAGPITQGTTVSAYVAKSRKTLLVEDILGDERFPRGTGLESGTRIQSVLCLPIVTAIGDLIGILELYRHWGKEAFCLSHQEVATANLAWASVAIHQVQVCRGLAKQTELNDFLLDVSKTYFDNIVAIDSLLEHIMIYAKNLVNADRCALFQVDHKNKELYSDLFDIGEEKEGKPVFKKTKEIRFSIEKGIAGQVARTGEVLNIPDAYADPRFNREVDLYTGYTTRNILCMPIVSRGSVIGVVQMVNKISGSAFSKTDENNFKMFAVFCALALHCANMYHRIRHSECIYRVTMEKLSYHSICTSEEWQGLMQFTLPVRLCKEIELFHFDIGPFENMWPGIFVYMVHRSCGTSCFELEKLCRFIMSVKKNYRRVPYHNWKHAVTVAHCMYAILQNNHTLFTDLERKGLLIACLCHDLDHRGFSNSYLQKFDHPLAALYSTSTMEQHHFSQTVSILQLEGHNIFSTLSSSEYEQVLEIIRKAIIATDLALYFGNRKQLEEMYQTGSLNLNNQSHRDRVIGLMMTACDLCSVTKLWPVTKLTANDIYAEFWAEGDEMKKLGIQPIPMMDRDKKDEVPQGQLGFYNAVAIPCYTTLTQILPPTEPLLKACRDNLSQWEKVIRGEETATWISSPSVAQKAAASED
PARAMETER_MEASURED: Emax

| COMPOUND | READOUT_VALUE |
| --- | --- |
| Cc1cc([C@H]2CN(C(=O)c3cc(C)c(F)c(C)c3)CC[C@@H]2C)n2ncnc2n1 | 72% |
| CCCC[C@H]1CCN(C(=O)c2cc(C)nc(C)c2)C[C@H]1c1cc(C(F)F)nc2ncnn12 (mixture of isomers) | 45% |
| O=C(c1ccc2occc2c1)N1CCC[C@](F)(c2cc(C(F)F)nc3ncnn23)C1 (single isomer, unassigned) | 24% |
| COc1c(C)cc(C(=O)N2CC[C@@H](C)[C@](F)(c3cc(C(F)F)nc4ncnn34)C2)cc1C | 36% |
| C[C@@H]1CCN(C(=O)c2cn(C)cn2)C[C@H]1c1cc(C(F)F)nc2ncnn12 | 69% |
| Cc1cc(C(=O)N2CC[C@@H](C)[C@H](c3cc(C(F)F)nc4ncnn34)C2)nc(C)n1 | 81% |
| Cc1cc(C#N)cc(C(=O)N2CC[C@@H](C)[C@H](c3cc(C(F)F)nc4ncnn34)C2)c1 | 99% |
| C[C@]1(c2cc(C(F)F)nc3ncnn23)CCCN(C(=O)c2ccc3occc3c2)C1 (single isomer, unassigned) | 7% |
| Cc1oncc1C(=O)N1CC[C@@H](C)[C@H](c2cc(C(F)F)nc3ncnn23)C1 | 74% |
| COc1cccc2c1OCC(C(=O)N1CC[C@@H](C)[C@H](c3cc(C(F)F)nc4ncnn34)C1)=C2 | 99% |
| COc1ccc(C(C)(C)C)cc1C(=O)N1CC[C@@H](C)[C@H](c2cc(C(F)F)nc3ncnn23)C1 | 78% |
| Cc1nc(C)c(C(=O)N2CC[C@@H](C)[C@H](c3cc(C(F)F)nc4ncnn34)C2)s1 | 74% |
| Cc1cc([C@@H]2CN(C(=O)c3cc4cccnc4nc3C(F)(F)F)CC[C@H]2C)n2ncnc2n1 | 95% |
| C[C@@H]1CCN(C(=O)c2ccc3nccn3c2)C[C@H]1c1cc(C(F)F)nc2ncnn12 | 97% |
| C[C@@H]1CCN(C(=O)c2cnc(Cl)c(Cl)c2)C[C@H]1c1cc(C(F)F)nc2ncnn12 | 96% |
